- assay-details: Colour index 'b' of formulations before and after polymerization
- Assay type: physicochemical
- condition-summary: UViCure S105E, thin samples (20 μm), under air, LED @385 nm (160 mW/cm^2), 300 s irradiation
Would you kindly list Colour index ‘b’ value Before Polymerization for each of these compounds?

Can you share its Colour index ‘b’ value Before Polymerization? I mean this compound: Cc1ccc([S+](c2ccc(C(=O)c3ccccc3)cc2)c2ccc3sc4ccc(C(C)C)cc4c(=O)c3c2)cc1 (centres unmarked)
6.49

Can you share its Colour index ‘b’ value Before Polymerization? I mean this compound: CCCOc1ccc(Cl)c2c(=O)c3cc(-[s+]4c5ccccc5c(=O)c5c(Cl)ccc(OCCC)c54)ccc3sc12 (centres unmarked)
5.35

Can you share its Colour index ‘b’ value Before Polymerization? I mean this compound: CCCOc1ccc(Cl)c2c(=O)c3cc([S+](c4ccc(C)cc4)c4ccc(C(=O)c5ccccc5)cc4)ccc3sc12 (centres unmarked)
8.40

Can you share its Colour index ‘b’ value Before Polymerization? I mean this compound: CCc1cc(CC)c2sc3ccc([S+](c4ccc(C)cc4)c4ccc(C(=O)c5ccccc5)cc4)cc3c(=O)c2c1 (centres unmarked)
6.28

Can you share its Colour index ‘b’ value Before Polymerization? I mean this compound: CC(C)c1ccc2sc3ccc(-[s+]4c5ccccc5c(=O)c5cc(C(C)C)ccc54)cc3c(=O)c2c1 (centres unmarked)
6.13

----------
- assay-details: Colour index 'b' of formulations before and after polymerization
- Type: physicochemical
- condition-summary: UViCure S105E, thin samples (20 μm), under air, LED @365 nm (120 mW/cm^2), 300 s irradiation
parameter-measured: Colour index ‘b’ value After Polymerization
Give the value as a plain number.

Can you share its Colour index ‘b’ value After Polymerization? I mean this compound: CCc1cc(CC)c2sc3ccc([S+](c4ccc(C)cc4)c4ccc(C(=O)c5ccccc5)cc4)cc3c(=O)c2c1 (centres unmarked) [Photoinitiator 4]
6.05

Can you share its Colour index ‘b’ value After Polymerization? I mean this compound: CCCOc1ccc(Cl)c2c(=O)c3cc([S+](c4ccc(C)cc4)c4ccc(C(=O)c5ccccc5)cc4)ccc3sc12 (centres unmarked) [Photoinitiator 3]
7.40

Can you share its Colour index ‘b’ value After Polymerization? I mean this compound: CC(C)c1ccc2sc3ccc(-[s+]4c5ccccc5c(=O)c5cc(C(C)C)ccc54)cc3c(=O)c2c1 (centres unmarked) [Photoinitiator 1]
8.81

Can you share its Colour index ‘b’ value After Polymerization? I mean this compound: CCCOc1ccc(Cl)c2c(=O)c3cc(-[s+]4c5ccccc5c(=O)c5c(Cl)ccc(OCCC)c54)ccc3sc12 (centres unmarked) [Photoinitiator 5]
4.92

Can you share its Colour index ‘b’ value After Polymerization? I mean this compound: Cc1ccc([S+](c2ccc(C(=O)c3ccccc3)cc2)c2ccc3sc4ccc(C(C)C)cc4c(=O)c3c2)cc1 (centres unmarked) [Photoinitiator 2]
6.31

----------
- assay-details: Real time FT-IR curing performance at 405 nm in neat TMPTA
- condition-summary: LED @405 nm (110 W/cm^2), 20 μm thickness, laminated
- Description: The curing performance of individual products prepared above was assessed using real time FT-IR measurement. […] For the epoxy component, the polymerization rate and final reactive group conversion were determined by monitoring the change of the relevant infrared band near 900 cm^−1 corresponding to an epoxide ring. […]
Criterion: Acrylate Polymerization rate Rp/[M0]*100 meeting or surpassing 5 s⁻¹. Met: T. Not met: F.

Identify whether the reported Acrylate Polymerization rate Rp/[M0]*100 of the following compound is 5 s⁻¹ or greater: CC(C)c1ccc2sc3ccc(-[s+]4c5ccccc5c(=O)c5cc(C(C)C)ccc54)cc3c(=O)c2c1 (stereo not drawn) [Photoinitiator 1]
F

Identify whether the reported Acrylate Polymerization rate Rp/[M0]*100 of the following compound is 5 s⁻¹ or greater: Cc1ccc([S+](c2ccc(C(=O)c3ccccc3)cc2)c2ccc3sc4ccc(C(C)C)cc4c(=O)c3c2)cc1 (stereo not drawn) [Photoinitiator 2]
F

Identify whether the reported Acrylate Polymerization rate Rp/[M0]*100 of the following compound is 5 s⁻¹ or greater: CCCOc1ccc(Cl)c2c(=O)c3cc(-[s+]4c5ccccc5c(=O)c5c(Cl)ccc(OCCC)c54)ccc3sc12 (stereo not drawn) [Photoinitiator 5]
F

Identify whether the reported Acrylate Polymerization rate Rp/[M0]*100 of the following compound is 5 s⁻¹ or greater: CCc1cc(CC)c2sc3ccc([S+](c4ccc(C)cc4)c4ccc(C(=O)c5ccccc5)cc4)cc3c(=O)c2c1 (stereo not drawn) [Photoinitiator 4]
T

Identify whether the reported Acrylate Polymerization rate Rp/[M0]*100 of the following compound is 5 s⁻¹ or greater: CCc1cc(CC)c2sc3ccc(-[s+]4c5ccccc5c(=O)c5cc(CC)cc(CC)c54)cc3c(=O)c2c1 (stereo not drawn) [Photoinitiator 40]
T

Identify whether the reported Acrylate Polymerization rate Rp/[M0]*100 of the following compound is 5 s⁻¹ or greater: CCCOc1ccc(Cl)c2c(=O)c3cc([S+](c4ccc(C)cc4)c4ccc(C(=O)c5ccccc5)cc4)ccc3sc12 (stereo not drawn) [Photoinitiator 3]
T

Origin of measurements: patent US20260217983A1
